I'd be grateful if you could share measured Kd for these entries.
- assayedSystem: T1, ROR1 extracellular domain Fc fusion:Fc heterodimer, monomer (human)
- T1 construct: Heterodimer of one ROR1 ECD-Fc chain and one Fc chain; also called ROR1 monomer; hROR1 monomeric ECD-Fc fusion protein; not shown: Fc part; Fc alone
- T1 sequence (Q01973 30-406, one chain of several): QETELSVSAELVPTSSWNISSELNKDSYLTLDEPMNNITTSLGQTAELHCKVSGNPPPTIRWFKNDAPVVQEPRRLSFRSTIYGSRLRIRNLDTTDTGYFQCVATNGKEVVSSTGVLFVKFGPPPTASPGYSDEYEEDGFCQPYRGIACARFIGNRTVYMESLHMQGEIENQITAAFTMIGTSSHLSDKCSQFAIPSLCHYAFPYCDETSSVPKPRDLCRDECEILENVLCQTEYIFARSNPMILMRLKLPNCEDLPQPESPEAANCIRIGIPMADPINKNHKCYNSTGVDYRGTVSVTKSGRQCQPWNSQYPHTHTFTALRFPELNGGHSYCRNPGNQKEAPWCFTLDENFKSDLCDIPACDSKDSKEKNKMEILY
- test: SPR, immobilised ROR1 monomer, antibody injected, 1:1 model
Numbers only, in nM.

Antibody 601-9 (antibody, V domains shown) VH: QLQLQESGPGVVKPSGTLSLTCTVSGGSISRSDGYWGWVRQPPGKGLEWIGSIYDTGTTYYSPSLKSRLIISVDTSKNQFSLTLNSVTAADTAVYYCASMGGLRSSSSDAFHTWGPGTMVTVSS VL: QSVLTQPPSVSVAPGETARITCGGTNIGSESVHWYQQRPGQAPVLVVYDDTDRPSGIPERFSGSNSGNTATLTISRVEAGDGADYYCQVWDSVSDRYVFGTGTKVTVL	27.6
Antibody 601-66 (antibody, V domains shown) VH: QVQLVQSGAEVKEPGASVKVSCKASGYTFRNSGITWVRQAPGQGLEWMGWINPNSGGAMYVDNFQGRATMTRDTSINTAYMELRSLSSDDTAVYYCARGMADLIDVFDIWGQGTLVTVSS VL: TQPALTQPASVSGSPGQSITISCTGTSSDFGDYDYVSWYQQHPGKAPKLMIYDVSDRPSGVSNRFSGSKSGNTASLTISGLQAEDEADYFCSSFTTSSTLVFGGGTKLTVL	2.4
Antibody 601-50 (antibody, V domains shown) VH: QVQLQQSGAEVKKPGASVKVSCKASGYTFSRYYIHWVRRAPGQGLEWMGLINPGGGSTNYAQKFQGRVTMTRDTSTNTVYLELSSLRSDDTAVYYCARDYGTIDARRFDFWGQGTLVTVSS VL: QSALTQPPSASGTPGQRVTISCPGSSSNIGSNYVYWYQQLPGTAPKLLIYRNNQRPSGVPDRFSGSKSGTSATLGITGLQTGDEADYYCGTWDSSLSAYVFGTGTKVTVL	1.5
Antibody 601-103 (antibody, V domains shown) VH: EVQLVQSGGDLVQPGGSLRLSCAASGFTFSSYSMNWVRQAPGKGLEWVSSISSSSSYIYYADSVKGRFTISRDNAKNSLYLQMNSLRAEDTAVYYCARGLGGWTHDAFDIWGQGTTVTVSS VL: QSVLTQPASVSGSPGQSITISCTGTTSDVGGYNYVSWYQQHPGKAPKLMIYDVSKRPSGVSNRFSGSKSGNTASLTISGLQAEDEADYYCSSYTSSSTDVFGTGTKLTVL	40.2
Antibody 601-13 (antibody, V domains shown) VH: EVQLVQSGAEVKKPGSSVKVSCKASGGTFSTFAINWVRQAPGQGLEWMGGVIPVSGTEDYSQKFQGRLSLTADESTGTAYMELSSLRSDDTAVYYCARDRSGRDWDYFDYWGQGTLVTVSS VL: DIVMTQSPSSLSASVGDRVTITCQASQDISNYLNWYQQKPGKAPKLLIYDASNLETGVPSRFSGSGSGTDFIFTISSLQPEDIATYYCQQFDNLPYTFGQGTKVEIKR	0.8
Antibody 601-70 (antibody, V domains shown) VH: EVQLVQSGAELKKPGSSVRVSCKTSGGSFKTHGISWVRQAPGQGLEWMGWINPNSGGALYVDNFQGRATMTRDTSINTAYMELRSLSSDDTAVYYCARGMADLIDVFDIWGQGTMVTVSS VL: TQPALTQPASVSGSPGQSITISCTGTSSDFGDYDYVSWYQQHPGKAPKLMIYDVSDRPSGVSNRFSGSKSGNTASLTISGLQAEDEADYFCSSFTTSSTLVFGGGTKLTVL	5.4
Antibody 601-130 (antibody, V domains shown) VH: EVQLVETGGGLVKPGGSLRLSCEASGFSLSSYSMNWVRQAPGKGLEWVSSISSSSTHIYYADSLKGRFTISRDNAKNSLFLQMDNLRAEDTAVYYCARATIGFDYWGQGTLVTVSS VL: QSVLTQPPSVSGAPGQRVTISCTGSSSNIGAGYDVHWYQQLPGTAPKLLIYGNSNRPSGVPDRFSGSKSGTSASLAITGLQAEDEADYYCQSYDSSLSGYVFGTGTKLTVL	4.1
Antibody 601-37 (antibody, V domains shown) VH: EVQLVQSGAEVKKPGASVKVSCKASGYTFNNYGFSWVRQAPGQGLEWMGWISVYNGNTNYAQKLQGRVTMTTDTSTSTAYMELRSLRSDDTAVYYCARDYYSDSSGYWDDAFDIWGQGTMVTVSS VL: AIRMTQSPSSLSASVGDRVTITCQASQDISNYLNWYQQKPGKAPKLLIYAASSLQSGVPSRFSGSGSGTDFTLTISSLQPEDFATYYCQQSYSTPFTFGPGTKVDIK	3

Hey, can you go through the list below and give me Kd for every item?
1. Antibody 601-28 (antibody, V domains shown) VH: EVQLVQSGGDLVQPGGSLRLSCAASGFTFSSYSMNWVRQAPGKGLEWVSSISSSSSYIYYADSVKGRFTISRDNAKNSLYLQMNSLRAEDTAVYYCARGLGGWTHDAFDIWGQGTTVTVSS VL: QSALTQPASVSGSPGQSITISCTGTSSDVGGYNYVSWYQQHPGKAPKLMIFDVSNRPSGVSNRFSGSKSGNTASLTISGLQAEDEADYYCSSYTSSSTLFGGGTKLTVL
2. Antibody 601-4 (antibody, V domains shown) VH: EVQLVQSGPGLVKPSGTLSLTCAVSGGSISSSNWWSWVRQPPGKGLEWIGEIYHSGSTNYNPSLKSRVTISVDKSKNQFSLKLGSVTAADTATYYCARDLWLGEWDLWGQGTLVTVSS VL: QSVLTQPPSASGAPGQRVTISCSGGISNVGTNGVNWYQHLPGTAPKLLVDAMNQRPSGVPDRFSGSRSGTSGSLAITGLRSEDEADYYCATWDDSLSGVLFGGGTKLTVLG

1: 36.4; 2: 0.3
